Biological target: SFRP-1 (Homo sapiens, UniProt Q8N474)
Sequence (Q8N474 32-314): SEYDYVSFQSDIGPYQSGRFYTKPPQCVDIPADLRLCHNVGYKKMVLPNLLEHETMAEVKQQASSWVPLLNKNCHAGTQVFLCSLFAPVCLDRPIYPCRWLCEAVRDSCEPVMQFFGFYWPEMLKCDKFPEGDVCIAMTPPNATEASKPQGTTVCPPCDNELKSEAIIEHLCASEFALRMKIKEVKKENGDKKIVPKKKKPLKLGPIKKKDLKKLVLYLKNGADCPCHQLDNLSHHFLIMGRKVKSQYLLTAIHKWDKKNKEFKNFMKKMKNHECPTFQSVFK
Experiment: Cell-based assay for in vitro measurement of SFRP-1/SARP2 antagonist activity (U2OS cells co-transfected with 16x TCF-tk-Luciferase reporter, Wnt and hSFRP-1);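 further: U2OS cells co-transfected with a TCF-tk luciferase reporter, a Wnt vector, hSFRP-1 or empty vector and CMV-βgal, luciferase luminescence read in cell lysates alongside βgal activity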
Settings: U2OS, read-out: Fold Induction with SFRP-1, U2OS cells, single dose 10 μM, luciferase reporter, fold induction over SFRP-1 control
METRIC: fold induction at 10 µM
Give bare numbers.

For orientation, consider the following solved cases.
Exercise: For "O=C(O)CCCC(=O)N1CCC(CNS(=O)(=O)c2cc(S(=O)(=O)c3ccccc3)ccc2C(F)(F)F)CC1" , write its fold induction at 10 µM.
Key: 3.5

Exercise: Entry "CN(CCNS(=O)(=O)c1cc(S(=O)(=O)c2ccccc2)ccc1C(F)(F)F)C(=O)c1ccccc1OC(F)(F)F" needs its fold induction at 10 µM filled in; supply it.
Key: 3.5

Exercise: Identify measured fold induction at 10 µM corresponding to "CC(C)c1ccc(S(=O)(=O)c2ccccc2)cc1S(=O)(=O)NC1CCN(C(=O)c2ccccc2)CC1"
Key: 2.6

Now for the molecule whose fold induction at 10 µM we want.
Exercise: // fetch fold induction at 10 µM given entry "O=C(O)CN1CCC(CNS(=O)(=O)c2cc(S(=O)(=O)c3ccccc3)ccc2C(F)(F)F)CC1"
Key: 3.2
